# key: entry, value: pIC50
Target: Glycylpeptide N-tetradecanoyltransferase (Candida albicans (strain SC5314 / ATCC MYA-2876) (Yeast))
Sequence (P30418 whole entry): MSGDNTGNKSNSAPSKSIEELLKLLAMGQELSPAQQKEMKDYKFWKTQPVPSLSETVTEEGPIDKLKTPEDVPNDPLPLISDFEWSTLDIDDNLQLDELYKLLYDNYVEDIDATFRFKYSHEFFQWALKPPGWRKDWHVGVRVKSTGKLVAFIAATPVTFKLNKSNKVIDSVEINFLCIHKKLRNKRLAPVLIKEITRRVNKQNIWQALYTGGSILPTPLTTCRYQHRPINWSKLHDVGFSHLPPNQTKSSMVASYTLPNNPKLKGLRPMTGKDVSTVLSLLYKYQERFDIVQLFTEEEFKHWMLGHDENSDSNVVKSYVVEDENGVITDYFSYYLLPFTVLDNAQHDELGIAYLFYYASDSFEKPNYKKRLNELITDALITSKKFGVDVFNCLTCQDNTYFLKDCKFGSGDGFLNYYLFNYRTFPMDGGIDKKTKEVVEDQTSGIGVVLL
Assay: Inhibitory activity against N-myristoyltransferase (NMT) of candida albicans
Non-standard residues stand in square brackets, D forms with d. Residues, ends and D or L forms follow the SMILES beside them. Aun = NCCCCCCCCCCC(=O)O
Worth noting: pIC50 values are minus log10 of concentrations stated in mol/L.

Would you please look over these solved cases?
molecule: CC(C)(C)CCNC(=O)[C@H](CCCCN)NC(=O)[C@H](CO)NC(=O)CCCCCCCCCCN
measurement: 5.92
--
molecule: CC(C)[C@H](NC(=O)[C@H](CCCCN)NC(=O)[C@H](CO)NC(=O)CCCCCCCCCCN)C(N)=O (H-[Aun]SKV-NH2)
measurement: 4.72
--
molecule: CC(C)C[C@H](NC(=O)[C@H](CCCCN)NC(=O)[C@H](CO)NC(=O)CCCCCCCCCCN)C(N)=O (stereo in doubt; 3a)
measurement: 5.92
--
molecule: CNCCCCCCCCCCC(=O)N[C@@H](CO)C(=O)N[C@@H](CCCCN)C(=O)N[C@@H](CC(C)C)C(=O)OC
measurement: 6.46
--
molecule: NCCCCCCCCCCC(=O)N[C@@H](CO)C(=O)N[C@@H](CCCCN)C(=O)NCCCC1CCCCCCC1
measurement: 6.52

Could you now consider this next molecule?
Ask | What value of pIC50 has been recorded for this entry: COC(=O)[C@H](CC(C)C)NC(=O)[C@H](CCCCN)NC(=O)[C@H](CO)NC(=O)CCCCCCCCCN
Reply | 6.52
